Reference source: PubChem BioAssay (NCI)

tested on: COLO 205 colon; experiment: NCI tumour cell line growth inhibition, 48 h
List of TGI values.
Numbers only; they are read as µM.

Value lookup for TGI; key = COc1cc2[nH]c3c(c2cc1OC)CCN[C@]31CC[C@]2(CC3c4c(cc(OC)c(O)c42)CCN3C)C[C@H]1OC (stereo not given in full)
27.3

// repeat for COc1ccc(C(=O)c2cc(C)c(OC)c(C)c2)c(OC)c1O and report
28.4

###

test system: NCI/ADR-RES ovarian; assay: NCI tumour cell line growth inhibition, 48 h
List of TGI values.

// solved cases for TGI follow
compound	TGI
COc1cc2cc3c4cc(OC)c(OC)cc4cc[n+]3c(C)c2cc1OC (tested in a mixture with another compound)	> 100 µM
COc1cccc2c1C(=O)c1c(O)c3c(c(O)c1C2=O)CC(O)(C(=O)CO)CC3OC1CC(N2CCOCC2C#N)C(O)C(C)O1 (centres undefined)	0.00357 µM
C[N+]1(C)CCc2cc(O)c(O)cc2C1Cc1ccc(O)c(O)c1 (centres undefined)	> 100 µM
O=C1CC(c2cccc([N+](=O)[O-])c2)C2(C(=O)NC(=O)NC2=O)C(c2cccc([N+](=O)[O-])c2)C1 (centres undefined)	> 100 µM

Value lookup for TGI; key = Cc1cc2ncnn2cc1Nc1ncc2c(n1)n(C1CCOCC1)c(=O)n2C
> 100 µM

// repeat for C(/C=C/Nc1ccc(Oc2ccccc2)cc1)=Nc1ccc(Oc2ccccc2)cc1 and report
33.5 µM

// repeat for O=C(c1ccco1)N(C(=S)OCCOc1ccccc1)c1ccccc1 and report
58.6 µM

// repeat for CC(=O)[C@@H](C)C(=O)N1C(=O)OC[C@@]12[C@@H]1CC[C@@H](C1)C2(C)C and report
> 100 µM

// repeat for Cc1ccc(S(=O)(=O)N/N=C2/CCCOC2)cc1 and report
> 100 µM

// repeat for CC1(C)/C(=C/N=O)N(O)C(C)(C)N1O and report
> 100 µM

// repeat for O=C(c1cccs1)N1CCc2ccccc2C1 and report
> 100 µM

// repeat for CC(C)=C[C@H]1CCC2(OCCO2)[C@]1(C)COCc1ccccc1 and report
> 100 µM
